targetEntity: Cytochrome P450 2D6 (Homo sapiens)
procedureSummary: Cytochrome P450 Family 2 Subfamily D Member 6 (CYP2D6) small molecule antagonists: luciferase reporter qHTS assay (AID 1671196); note: nearly all actives have a fitted effect of over 50% in size
particulars: P450-Glo CYP2D6 enzyme assay, luciferin luminescence, 1 h; series mostly up to 115 µM
Records with an inconclusive call do not appear. Calls of active or inactive are those of the source. Calls come from the whole dose curve; as a rule, active = well fitted inhibition curve with a large enough effect in the repeat runs; inconclusive = weak or mixed curves; inactive = no such curve, though single readings can be large or run the other way.
In this exercise, the only acceptable responses are active, inactive

Inquiry: Tell me the recorded outcome of this test for CCCOC(OCCC)OCCC .
Reply text: inactive

Inquiry: Tell me the recorded outcome of this test for COC(=O)c1ccccc1C(=O)c1ccc(OCCN2CCCCC2)cc1 .
Reply text: active

Inquiry: Tell me the recorded outcome of this test for CC(CO)c1ccccc1 (configuration not stated) .
Reply text: inactive

Inquiry: Tell me the recorded outcome of this test for COc1nccnc1NS(=O)(=O)c1ccc(N)cc1 .
Reply text: inactive

Inquiry: Tell me the recorded outcome of this test for CCOc1cc([N+](=O)[O-])c(OCC)cc1N1CCOCC1 .
Reply text: inactive

Inquiry: Tell me the recorded outcome of this test for O=C(O)c1ccc(Cl)cc1Cl .
Reply text: inactive

Inquiry: Tell me the recorded outcome of this test for O=Cc1ccc(Cl)c(Cl)c1 .
Reply text: inactive

---

procedureSummary: qHTS assay to identify small molecule antagonists of the androgen receptor (AR) signaling pathway using the MDA cell line in the presence of 0.5 nM R1881 - cell viability counter screen (AID 1259242); note: nearly all actives have a fitted effect of over 45% in size
particulars: MDA-kb2 viability, CellTiter-Fluor protease fluorescence, 16 h; series mostly up to 92.4 µM
Results filed as inconclusive are left out. The source made the active and inactive calls. The call rests on the fitted dose curve; in most records, active means well fitted cell-killing curve with a large enough effect in the repeat runs; inconclusive means weak or mixed curves, or effect the other way; inactive means flat fitted curve, though single readings scatter.
outcomeMeasure: viability change, negative = cytotoxic

compound="O=C(NCC(O)CO)c1c(I)c(C(=O)NCC(O)CO)c(I)c(N(CCO)C(=O)CO)c1I (centres undefined)" outcomemeasure="viability change, negative = cytotoxic" testresult=inactive
compound="NC(CO)C(=O)NNCc1ccc(O)c(O)c1O (centres undefined)" outcomemeasure="viability change, negative = cytotoxic" testresult=inactive
compound=COc1ccc2nc(SCc3ncc(C)c(OC)c3C)[nH]c2c1 outcomemeasure="viability change, negative = cytotoxic" testresult=inactive
compound=O=C1O[C@@H]2[C@@H](O)[C@H](O)O[C@@H]2[C@H]1O outcomemeasure="viability change, negative = cytotoxic" testresult=inactive
compound=O=C(O)c1ccc(Cl)cc1Cl outcomemeasure="viability change, negative = cytotoxic" testresult=inactive

GET /value?item= CC(=O)NCc1c(I)c(NC(C)=O)c(I)c(C(=O)O)c1I &field=viability change, negative = cytotoxic returns inactive

GET /value?item= CN(CCOc1ccc(NS(C)(=O)=O)cc1)CCc1ccc(NS(C)(=O)=O)cc1 &field=viability change, negative = cytotoxic returns inactive

GET /value?item= NS(=O)(=O)c1cc2c(cc1Cl)CN(C1CCCCC1)C2=O &field=viability change, negative = cytotoxic returns inactive

GET /value?item= Cc1[nH]cnc1-c1ccc(Cl)cc1 &field=viability change, negative = cytotoxic returns inactive

GET /value?item= Oc1ccccc1-c1nnco1 &field=viability change, negative = cytotoxic returns inactive

GET /value?item= O=C(CCN1CCN(CCO)CC1)N1c2ccccc2Sc2ccc(C(F)(F)F)cc21 &field=viability change, negative = cytotoxic returns inactive

GET /value?item= CCCCCCCCC(=O)Cl &field=viability change, negative = cytotoxic returns inactive

GET /value?item= CCOC(=O)/C=C/c1ccccc1 &field=viability change, negative = cytotoxic returns inactive
